tested.target: USP1/UAF1 (Homo sapiens)
Sequence (O94782 whole entry): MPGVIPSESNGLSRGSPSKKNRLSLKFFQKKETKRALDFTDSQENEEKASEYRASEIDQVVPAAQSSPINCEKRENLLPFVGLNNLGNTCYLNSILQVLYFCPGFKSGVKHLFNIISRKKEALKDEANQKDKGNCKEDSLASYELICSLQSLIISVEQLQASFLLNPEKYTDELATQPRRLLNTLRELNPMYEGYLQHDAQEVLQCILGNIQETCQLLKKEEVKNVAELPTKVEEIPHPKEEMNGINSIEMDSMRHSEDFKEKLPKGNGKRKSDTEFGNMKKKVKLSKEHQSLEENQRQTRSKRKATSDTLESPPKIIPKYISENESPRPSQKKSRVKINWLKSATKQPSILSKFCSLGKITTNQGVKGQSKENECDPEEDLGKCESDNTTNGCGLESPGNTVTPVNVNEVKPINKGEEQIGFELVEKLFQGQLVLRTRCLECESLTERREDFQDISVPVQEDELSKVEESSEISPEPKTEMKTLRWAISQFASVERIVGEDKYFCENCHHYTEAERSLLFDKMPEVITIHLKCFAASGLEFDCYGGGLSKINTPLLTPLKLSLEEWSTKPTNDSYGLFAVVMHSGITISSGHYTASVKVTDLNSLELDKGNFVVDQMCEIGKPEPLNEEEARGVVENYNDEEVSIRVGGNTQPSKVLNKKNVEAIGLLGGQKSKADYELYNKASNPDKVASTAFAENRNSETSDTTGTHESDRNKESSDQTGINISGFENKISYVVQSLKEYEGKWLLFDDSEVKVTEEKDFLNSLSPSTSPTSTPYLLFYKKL
Sequence (Q8TAF3 whole entry partner): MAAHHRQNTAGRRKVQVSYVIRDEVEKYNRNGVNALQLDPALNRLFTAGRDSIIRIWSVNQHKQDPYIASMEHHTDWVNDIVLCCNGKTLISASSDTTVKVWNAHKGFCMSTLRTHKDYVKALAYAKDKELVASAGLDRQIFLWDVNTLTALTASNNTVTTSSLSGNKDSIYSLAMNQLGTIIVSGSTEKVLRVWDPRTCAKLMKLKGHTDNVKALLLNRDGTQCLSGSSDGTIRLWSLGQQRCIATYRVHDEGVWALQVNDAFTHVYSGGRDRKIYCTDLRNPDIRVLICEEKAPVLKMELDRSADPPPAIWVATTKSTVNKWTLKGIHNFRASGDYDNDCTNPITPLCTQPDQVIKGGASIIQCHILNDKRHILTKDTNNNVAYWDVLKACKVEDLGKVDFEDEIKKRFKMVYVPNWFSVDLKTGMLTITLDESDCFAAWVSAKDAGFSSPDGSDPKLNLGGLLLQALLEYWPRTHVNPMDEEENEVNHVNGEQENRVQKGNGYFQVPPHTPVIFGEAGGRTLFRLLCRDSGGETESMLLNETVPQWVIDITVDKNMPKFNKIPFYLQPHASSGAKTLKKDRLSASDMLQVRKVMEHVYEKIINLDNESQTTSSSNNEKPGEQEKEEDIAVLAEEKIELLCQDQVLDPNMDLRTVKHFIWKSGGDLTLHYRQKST
protocol.description: USP1/UAF1 quantitative high-throughput screening
Assay type: biochemical

>  <compound.smiles>
FC(F)(F)c1cccc(-c2nc(NCc3ccc(-c4cccnc4)cc3)c3ccccc3n2)c1

>  <activity toward USP1/UAF1 (in words)>
inactivity

$$$$
>  <compound.smiles>
Cc1cnc(-c2ccccc2C2COC2)nc1NCc1ccc(-n2ccnn2)cc1

>  <activity toward USP1/UAF1 (in words)>
lost all activity

$$$$
>  <compound.smiles>
Cc1cnc(-c2ccccc2C2COC2)nc1NCc1ccc(-c2cccnc2)cc1

>  <activity toward USP1/UAF1 (in words)>
lost all activity

$$$$
>  <compound.smiles>
FC(F)(F)c1ccc(-c2nc(NCc3ccc(-c4cccnc4)cc3)c3ccccc3n2)cc1

>  <activity toward USP1/UAF1 (in words)>
inactivity

$$$$

Each recorded value in this set is attributed to paper PMC4191588.
